Molecular target: Carboxy-terminal domain RNA polymerase II polypeptide A small phosphatase 1 (Homo sapiens)
Assay: inhibition of human SCP1 dephosphorylation activity – biochemical, colorimetric, uHTS, primary screen (AID 493091);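 also: plate controls were DMSO wells with enzyme for no effect and wells lacking enzyme for full effect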
Details: Recombinant Scp1, phosphopeptide, malachite green phosphate absorbance; at 20 µM; hits give high values
Out of some 340,000 compounds screened, about 3,000 (0.88%) were called active. For the sample, actives were picked, then their nearest neighbours and some compounds at random.
measure: inhibition (%)
// return numeric value only (unit: %, not printed)

Query block: Looking for the measured inhibition of "O=C(Cc1ccc(Cl)cc1)NCCN1CCN(C(=O)Cc2ccc(Cl)cc2)CC1" , can you help?
Result block: -8.32

Query block: Quick check: inhibition of CSc1ccc(C(=O)C2CCCN(Cc3ccn[nH]3)C2)cc1 (stereo unspecified) ?
Result block: -7.2

Query block: May I ask what inhibition has been recorded for "O=c1[nH]c(=O)n(CCc2ccc(F)cc2)c(O)c1/C=N/N1CCCCC1" ?
Result block: 51

Query block: Which inhibition reading was recorded for the molecule COc1ccc2c(c1)NP(=S)(c1ccccc1)N2 (stereo unspecified) ?
Result block: 0.52

Query block: What measured inhibition goes with "CCN(CC)C(=O)Oc1ccc(NC(=O)N2CCOCC2)cc1" ?
Result block: -3.55

Query block: Which inhibition value belongs to Cc1ccc(C2CN(C)CC2C(=O)c2ccc(F)cc2)cc1 (stereo unspecified) ?
Result block: 2.83

Query block: Please report the recorded inhibition for "O=C1NC(=O)N(Cc2ccco2)C(=O)/C1=C\c1ccc(-c2ccc(F)cc2)o1" .
Result block: 5.05

Query block: inhibition lookup needed for "CN(C)C(=O)Oc1ccc2c(c1)O/C(=C\c1ccccc1)C2=O" , thanks.
Result block: -15.9

Query block: I have this molecule here, "CC(=O)N(C1=NCCCS1)c1ccccc1F" , and I need its recorded inhibition.
Result block: -8.48

Query block: I'd like to know its inhibition. The molecule in question is "COc1ccc(N2C(=O)/C(=C/c3ccco3)C(=O)NC2=S)cc1"
Result block: 92.7

Query block: Could you tell me which inhibition is on file for "Cc1ccc(S(=O)(=O)N(C)c2ccc(C(=O)NCC3(N(C)C)CCCCC3)cc2)cc1" ?
Result block: -2.43

Query block: Fill blank: measured inhibition of the molecule "Nc1ccc(Cc2ccc(N)c(Cl)c2)cc1Cl" is ____.
Result block: -6.26

Query block: Sample CC1CNCCN1c1ccc(Cl)cc1 (stereo unspecified) — what was its inhibition?
Result block: 2.17

Query block: For the molecule "O=c1[nH]c(=O)n(-c2ccc(F)cc2)c(O)c1C=NCCN1CCCCC1" , what inhibition is on record?
Result block: -0.8

Query block: Bench note: what inhibition did "COC(=O)C1=C(c2cc3ccccc3s2)C[C@@H]2CC[C@H]1N2C(=O)NCc1cccc2ccccc12" show?
Result block: -7.13

Query block: Form field: reported inhibition of "COc1ccccc1N=Nc1c(O)[nH]c(=S)[nH]c1=O"
Result block: 9.19
